pKi: −log10 of the molar value.
# pKi per entry for glucocorticoid receptor (Homo sapiens, UniProt P04150)

Provide each entry's pKi from the list below.
1. Cc1cc(C2(c3cc(C)c(O)c(C)c3)C(=O)N(Cc3cccc(N)c3)c3ccccc32)cc(C)c1O
2. Cc1cc(C2(c3cc(C)c(O)c(C)c3)C(=O)N(Cc3ccc4ccccc4n3)c3ccccc32)cc(C)c1O
3. Cc1ccc(N2C(=O)C(c3cc(C)c(O)c(C)c3)(c3cc(C)c(O)c(C)c3)c3ccccc32)cc1
4. Cc1cc(C2(c3cc(C)c(O)c(C)c3)C(=O)N(Cc3ccc(OC(F)(F)F)cc3)c3ccccc32)cc(C)c1O
5. Cc1cc(C2(c3cc(C)c(O)c(C)c3)C(=O)N(Cc3ccccc3)c3ccc(Br)cc32)cc(C)c1O
6. Cc1cc(C2(c3cc(C)c(O)c(C)c3)C(=O)N(c3cccc(C(C)C)c3)c3ccccc32)cc(C)c1O
7. Cc1cc(C2(c3cc(C)c(O)c(C)c3)C(=O)N(Cc3ccccc3Cl)c3ccccc32)cc(C)c1O
8. Cc1cc(C2(c3cc(C)c(O)c(C)c3)C(=O)N(Cc3cccc(Br)c3)c3ccccc32)cc(C)c1O

Result:
1: ≥ 6.30; 2: ≥ 6.30; 3: ≥ 6.30; 4: ≥ 6.30; 5: ≥ 6.00; 6: ≥ 6.30; 7: ≥ 6.30; 8: ≥ 6.30

Provide each entry's pKi from the list below.
1. Cc1cc(C2(c3cc(C)c(O)c(C)c3)C(=O)N(Cc3ccccc3C(F)(F)F)c3ccccc32)cc(C)c1O
2. COc1ccc2c(c1)C(c1cc(C)c(O)c(C)c1)(c1cc(C)c(O)c(C)c1)C(=O)N2Cc1ccccc1

Result:
["≥ 6.00", "≥ 6.30"]
